# Assay Method Text: Components of the Cytosolic LPS Sensing Pathway: Gene Identification via Genome-wide siRNA Screen;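 further: robust z of the log signal after scaling to non-targeting control siRNA wells of the plate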
# Experimental Setup: RAW264.7 macrophages, IL-1a HTRF, actives lie on both sides, screened at 100 nM (by protocol), cells primed 5 h with Pam3CSK4 first
The campaign covered roughly 53,000 sequences. About 3,700 (7%) were called active.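 How the source made its calls: active means gene knockdowns whose robust z-score for IL-1 alpha signal is at least 2 or at most -2, so actives lie on both sides; inactive means the rest.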 Only a selection was taken, and actives are over-represented in it overall.
Outcomes: true (1) (active), false (0) (inactive)

Sequence Record: GGUGGGAUGAUCAUAAGUUTT against Ppnr
Class Label: false (0)
//
Sequence Record: CGCGAGGAAGUCGAGGUAUTT against Pax2
Class Label: false (0)
//
Sequence Record: GGAUGAAAGCAAAGACAAGTT against Zscan21
Class Label: true (1)
//
Sequence Record: CCAGCAUUAUCCAUAUCAATT against Nat2
Class Label: false (0)
//
Sequence Record: GGUUAAGACCUUAAACAGATT against Prl4a1
Class Label: false (0)
//
Sequence Record: GGGCAAAGGAAAUGGAAUCTT against Eif5
Class Label: true (1)
//
Sequence Record: GGUAGUUCAGAUCUGAUUUTT against Svep1
Class Label: false (0)
//
Sequence Record: GGCAUUGCUGGACUUUGAATT against Mvp
Class Label: false (0)
//
Sequence Record: GGACUGGAAAAUAUCAAACTT against Spata5
Class Label: true (1)
//
Sequence Record: GGGUUGAUUUGGUGUUUUATT against Usp46
Class Label: false (0)
//
Sequence Record: GGUGAUUCGUCAGAAGCUGTT against Gpr84
Class Label: false (0)
//
Sequence Record: GGACUACUCCAGAAAGCUUTT against Wdfy3
Class Label: false (0)
//
Sequence Record: GCUUGAUUUUUGACAGAGATT against Mdh1b
Class Label: false (0)
//
Sequence Record: GGGCUCUAGCUAAAAACGATT against Med10
Class Label: false (0)
//
Sequence Record: GGCCGUUAUUAAAUUCAUATT against Twsg1
Class Label: false (0)
//
Sequence Record: GGGUAUGACAACAAACUUCTT against Gabrg2
Class Label: false (0)
//
Sequence Record: GUACAAGCCACUGGAUCUGTT against Smad6
Class Label: true (1)
//
Sequence Record: GGUAAUGGCUCACUUAAUATT against Malt1
Class Label: false (0)
//
Sequence Record: GCAGAAGUUCAUUUUCCUATT against Olfr145
Class Label: false (0)
//
Sequence Record: GCUACUCCCUGCAUAUUAGTT against Slamf9
Class Label: false (0)
//
Sequence Record: CGCUGUGCUGAGCUUACUUTT against D17H6S53E
Class Label: true (1)
//
Sequence Record: GGAUCUCAUACAGAAUCCGTT against Haus4
Class Label: false (0)
//
Sequence Record: GCCUACUCCCAAGAGGAAATT against Gprc5a
Class Label: true (1)
//
Sequence Record: GGUGACUGUCCUGAACUAUTT against Prr5l
Class Label: false (0)
//
Sequence Record: GGUUUAUGGAGCAAGUGAUTT against Actr3
Class Label: true (1)
//
Sequence Record: GGUGAAAUCCAGGAGUUUUTT against Rnd3
Class Label: true (1)
//
Sequence Record: GGAGAACAAGAUCUUACAGTT against Cby2
Class Label: false (0)
//
Sequence Record: GGAACAUGUCUCCUGAUCUTT against Add3
Class Label: false (0)
//
Sequence Record: GGAGUAGCAGAGCUUCUGGTT against S100a8
Class Label: false (0)
//
Sequence Record: GGACGAUUGCCAUAUGAACTT against Ice2
Class Label: false (0)
//
Sequence Record: AUGGUGCUGUUUUAUUUGUTT against Olfr671
Class Label: false (0)
//
Sequence Record: GGUCAUGGAUGUCACAGAGTT against Mink1
Class Label: true (1)
//
Sequence Record: GGAAGAAGGAAGGUUCAGATT against Strm
Class Label: false (0)
//
Sequence Record: CCGAAAUUUUGAGUACUGUTT against Vmn1r67
Class Label: false (0)
//
Sequence Record: GCGACUUAGAAAAGAACAGTT against Ccdc58
Class Label: false (0)
//
Sequence Record: GGUGAACGAUGUCAACUUUTT against Dvl1
Class Label: false (0)
//
Sequence Record: GCUCACAUUGAGUGGUUGGTT against Ncbp3
Class Label: false (0)
//
Sequence Record: GGGAGGUUACUAUGGAGACTT against Mia
Class Label: false (0)
//
Sequence Record: GGCUGUAUACCAAUAAAAATT against B4galt6
Class Label: false (0)
//
Sequence Record: GGUUAACUCCUUUUCUAGATT against Ints13
Class Label: false (0)
//
Sequence Record: GGCUGAGGAGAUAACCAUATT against Nemp2
Class Label: false (0)
//
Sequence Record: CGCAGAAAGAGCAUCAGAUTT against Atg9a
Class Label: true (1)
//
Sequence Record: UAUUAAACUCUUGAGACCGTT against Oxa1l
Class Label: false (0)
//
Sequence Record: GCAAAUCCCAGCUCAAUGUTT against Zfp810
Class Label: false (0)
//
Sequence Record: GGAUCACUGACUUUGAAUUTT against Mob2
Class Label: false (0)
//
Sequence Record: CCUAACAUAGUAUAGCCUUTT against Zfp868
Class Label: false (0)
//
Sequence Record: GGAGGGAAUGAAAAGUCAATT against Stard7
Class Label: true (1)
//
Sequence Record: GCAACGUGAAACAUAUUCUTT against Cpb1
Class Label: false (0)
//
Sequence Record: GGAAGCUUCAGGAGUAUAUTT against Sdc2
Class Label: false (0)
//
Sequence Record: GGAUGUUCUUGCUCAUGUGTT against Fam149b
Class Label: false (0)
